Reported Enzyme Activity Endpoint Assay (purified): scIgG values are given for each entry in this list.
- tested.target: pooled human IgG (human IgG1, 2, 3 and 4)
quantity.kind: Enzyme Activity Endpoint Assay (purified): scIgG

protein	result
PRT-397 (protein) MVTSVWTKGVTPPADFTQGEDVFHAPYVANQGWYDITKTFNGKDDLLCGAATAGNMLHWWFDQNKEYIEAYLKKHPEKQKIMFGDQELLDVRKAINTKGSQKNSELFNYFRDKAFPNLSARRLGVMPDLVLDMFINGYYLNVTKTQTTDVNRTYQEKDKRGGIFDAVFTRGDQSKLLTSRHDFKEKGLKEISDLIKQELTEGKALGLSHTYANVGINHVINLWGADFDSDGNLKAIYVTDSDSNASIGMKKYFVGVNSAGKVAISAKEIKEDNIGAQVLGLFTLSTGQDIWNQTN	498 ng/µL
PRT-415 (protein) MTITSVWTKGVTPPTPEDFRYNNEDVLHAPYVANQGWYDITKTFDGKDNLLCGAATAGNMLHWWFDQNKEEIERYLKKHPEKQKIIFNNQELFDVKAAIDTKDSQTNSKLFNYFLDKAFPNLSARQLGVMPDLVLDMFINGYYLNLGKTQSTDVNRPYQDKDKRGGIFDAVFTRGDQTTLLTARHDLKNKGLNEISDLIKQELTEGKALALSHTYANVRINHVINLWGADFDAEGNLIAIYVTDSDANASIGMKKYFVGVNANGKVAISAKKIEGDNIGAQVLGLFTLSTGQDIWQKLS	630 ng/µL
PRT-623 (protein) MQITTVWTKGVTPLTPEQFRYNNEDVIHAPYLAHQGWYDITKAFDGKDNLLCGAATAGNMLHWWFDQNKTEIEAYLSKHPEKQKIIFNNQELFDLKAAIDTKDSQTNSQLFNYFRDKAFPNLSARQLGVMPDLVLDMFINGYYLNVFKTQSTDVNRPYQDKDKRGGIFDAVFTRGDQTTLLTARHDLKNGTLNEISQIIKQELQSGRALALSHTYANVSISHVINLWGADFNAEGNLIAIYVTDSDANASIGMKKYFVGINAHGHVAISAKKIEGENIGAQVLGLFTLSSGKDIWQKLSLEHHHHHH	157 ng/µL
PRT-619 (protein) MQITTVWTKGVTPLTPEQFRYNNEDVIHAPYLAHQGWYDITKAFDGKDNLLCGAATAGNMLHWWFDQNKTEIEAYLSKHPEKQKIIFNNQELFDLKAAIDTKDSQTNSQLFNYFRDKAFPNLSARQLGVMPDLVLDMFINGYYLNVFKTQSTDVNRPYQDKDKRGGIFDAVFTRGDQTTLLTARHDLKNGGLEDISTIIKQELKNGRALALSHTYANVSISHVINLWGADFNAEGNLSAIYVTDSDANASIGMKKYFVGINAHGHVAISAKKIEGENIGAQVLGLFTLSSGKDIWQKLSLEHHHHHH	591 ng/µL
